Documented kcat/Km across a set of proteins
Substrate: CC(C)=CCOP(=O)(O)O
Experimental Protocol: purified protein
Run Conditions: ATP 1 mM (2 mM in methods), 25 mM Tris pH 7.8, 5 mM MgCl2, 37 °C
Field format: number, assumed M⁻¹ s⁻¹, no unit text.

Endpoint output: kcat/Km of CNG (Candidatus Nitrososphaera gargensis Ga9.2) (protein, N-His6 fusion, pET28a NdeI/EcoRI, codon-optimised synthetic gene, E. coli Rosetta2, Ni-NTA) MQKLALIKLGGSVVTFKDKPLAANTGAIDGISRVLAQLSTPAIIVHGGGSFGHYWSVKYDMHTKPAGYDPHGVSVVHESMIALNQIIINSMIRAGLNPYGMPPSVFAAGHKPVAAKIKQIYTMAKSEVMPVTFGDVVHMEGNKYSILSGDALMTMLAKVLRPSRVVFATNVDGIYKDMASRELMREIRVTTGRKKRSIEFSKASGADVTGGMQRKVAEAFKIASRGMDVLMVNGLMPERIAEAVVEGTRLQVGTVVKGSRR . Value?
2200

Endpoint output: kcat/Km of MHM (Methanohalophilus mahii DSM 5219) (protein, N-His6 fusion, pET28a NdeI/EcoRI, codon-optimised synthetic gene, E. coli Rosetta2, Ni-NTA) MNEKNSDITILKIGGSVITDKSSNEGIVREKAIIRIAREISFFEGPLIIVHGAGSFGHPQAKRYSLAYKFSAEGSGVTHRSVASLNELFVNALAQRNVNAVGIHPMGCLVAKEGRISKSFLLAIQMMLEKGITPVLHGDVVMDTVKGSSVISGDQIVPYLASKLNAYRIGVGSAEDGVLDEHGHPIPLITPDNFEIASMHIGGSENTDVTGGMLGKVKEMLDMSRQTKVPSYIFNANAGGNVMSFLRGEMIGTAIKDKA . Value?
120000

Endpoint output: kcat/Km of MSB (Methanosarcina barkeri 3) (protein, N-His6 fusion, pET28a NdeI/EcoRI, codon-optimised synthetic gene, E. coli Rosetta2, Ni-NTA) MNVSTEPVILKLGGSVITDKAADQGVVREDSLRRIAKEVSEYRGKMIIVHGAGSFGHTYAKKYQLGKVFDPEGAIVTHESVKKLASRVVDTLNEYGVRAIAVHPMCCTICRNGRIESMYLDNIKLMLENGLVPVLHGDVVMDLELRACVLSGDQIVPYLAKELKITRLGLGSAEDGVLDNDGKTVPEITPKTFEDFKHYIRGSGSTDVTGGMLGKVQELLELSKTSCITSYIFNAGKDDNIYRFLNGEPMGTTISPDKRV . Value?
310000

Next protein, kcat/Km to be filled in.
Endpoint output: kcat/Km of TCP (Thermococcus paralvinellae) (protein, N-His6 fusion, pET28a NdeI/EcoRI, codon-optimised synthetic gene, E. coli Rosetta2, Ni-NTA) MIIIKLGGSVISDKEKEYSFHRHIVEQIAEEIAQFYPDESFILVHGGGSFGHPNAREYKITEGLVGDVDRKRIGFSKTHQAMLKLNDLIIQTFLEKGLPAYSVSSSSIFLLENKEVVYGELEILRKLLELKFIPVLFGDTAIALDKGIDILSGDQIVSYLAKMLKPSKVIFLMDVDGIYDRNPKERDAKLIEELNVEEIRHLLESSESAGIDVTGGIGNKLREALKIAKHSEVYFINGKVKENLGKAIRGEKVGTRLRKLEHPKIS . Value?
360000
